target: fusion protein PRG
Sequence (chain, as listed by the source): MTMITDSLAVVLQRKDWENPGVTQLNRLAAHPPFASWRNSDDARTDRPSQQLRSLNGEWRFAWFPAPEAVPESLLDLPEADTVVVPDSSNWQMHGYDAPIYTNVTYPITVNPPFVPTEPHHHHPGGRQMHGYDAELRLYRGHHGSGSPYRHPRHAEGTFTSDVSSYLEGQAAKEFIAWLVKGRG
observation-type: relative cleavage efficiency

OmpT protease variant OmpT D97M (protein) STETLSFTPDNINADISLGTLSGKTKERVYLAEEGGRKVSQLDWKFNNAAIIKGAINWDLMPQISIGAAGWTTLGSRGGNMVDQDWMDSSNPGTWTMESRHPDTQLNYANEFDLNIKGWLLNEPNYRLGLMAGYQESRYSFTARGGSYIYSSEEGFRDDIGSFPNGERAIGYKQRFKMPYIGLTGSYRYEDFELGGTFKYSGWVESSDNDEHYDPGKRITYRSKVKDQNYYSVAVNAGYYVTPNAKVYVEGAWNRVTNKKGNTSLYDHNNNTSDYSKNGAGIENYNFITTAGLKYTF ... less than 3%
OmpT protease variant OmpT D97C (protein) STETLSFTPDNINADISLGTLSGKTKERVYLAEEGGRKVSQLDWKFNNAAIIKGAINWDLMPQISIGAAGWTTLGSRGGNMVDQDWMDSSNPGTWTCESRHPDTQLNYANEFDLNIKGWLLNEPNYRLGLMAGYQESRYSFTARGGSYIYSSEEGFRDDIGSFPNGERAIGYKQRFKMPYIGLTGSYRYEDFELGGTFKYSGWVESSDNDEHYDPGKRITYRSKVKDQNYYSVAVNAGYYVTPNAKVYVEGAWNRVTNKKGNTSLYDHNNNTSDYSKNGAGIENYNFITTAGLKYTF ... less than 3%
OmpT protease variant OmpT D97T (protein) STETLSFTPDNINADISLGTLSGKTKERVYLAEEGGRKVSQLDWKFNNAAIIKGAINWDLMPQISIGAAGWTTLGSRGGNMVDQDWMDSSNPGTWTTESRHPDTQLNYANEFDLNIKGWLLNEPNYRLGLMAGYQESRYSFTARGGSYIYSSEEGFRDDIGSFPNGERAIGYKQRFKMPYIGLTGSYRYEDFELGGTFKYSGWVESSDNDEHYDPGKRITYRSKVKDQNYYSVAVNAGYYVTPNAKVYVEGAWNRVTNKKGNTSLYDHNNNTSDYSKNGAGIENYNFITTAGLKYTF ... less than 3%
OmpT protease variant OmpT D97L (protein) STETLSFTPDNINADISLGTLSGKTKERVYLAEEGGRKVSQLDWKFNNAAIIKGAINWDLMPQISIGAAGWTTLGSRGGNMVDQDWMDSSNPGTWTLESRHPDTQLNYANEFDLNIKGWLLNEPNYRLGLMAGYQESRYSFTARGGSYIYSSEEGFRDDIGSFPNGERAIGYKQRFKMPYIGLTGSYRYEDFELGGTFKYSGWVESSDNDEHYDPGKRITYRSKVKDQNYYSVAVNAGYYVTPNAKVYVEGAWNRVTNKKGNTSLYDHNNNTSDYSKNGAGIENYNFITTAGLKYTF ... less than 3%
OmpT protease variant OmpT D97P (protein) STETLSFTPDNINADISLGTLSGKTKERVYLAEEGGRKVSQLDWKFNNAAIIKGAINWDLMPQISIGAAGWTTLGSRGGNMVDQDWMDSSNPGTWTPESRHPDTQLNYANEFDLNIKGWLLNEPNYRLGLMAGYQESRYSFTARGGSYIYSSEEGFRDDIGSFPNGERAIGYKQRFKMPYIGLTGSYRYEDFELGGTFKYSGWVESSDNDEHYDPGKRITYRSKVKDQNYYSVAVNAGYYVTPNAKVYVEGAWNRVTNKKGNTSLYDHNNNTSDYSKNGAGIENYNFITTAGLKYTF ... less than 3.0%
OmpT protease variant OmpT D97V (protein) STETLSFTPDNINADISLGTLSGKTKERVYLAEEGGRKVSQLDWKFNNAAIIKGAINWDLMPQISIGAAGWTTLGSRGGNMVDQDWMDSSNPGTWTVESRHPDTQLNYANEFDLNIKGWLLNEPNYRLGLMAGYQESRYSFTARGGSYIYSSEEGFRDDIGSFPNGERAIGYKQRFKMPYIGLTGSYRYEDFELGGTFKYSGWVESSDNDEHYDPGKRITYRSKVKDQNYYSVAVNAGYYVTPNAKVYVEGAWNRVTNKKGNTSLYDHNNNTSDYSKNGAGIENYNFITTAGLKYTF ... less than 3.0%
OmpT protease variant OmpT D97K (protein) STETLSFTPDNINADISLGTLSGKTKERVYLAEEGGRKVSQLDWKFNNAAIIKGAINWDLMPQISIGAAGWTTLGSRGGNMVDQDWMDSSNPGTWTKESRHPDTQLNYANEFDLNIKGWLLNEPNYRLGLMAGYQESRYSFTARGGSYIYSSEEGFRDDIGSFPNGERAIGYKQRFKMPYIGLTGSYRYEDFELGGTFKYSGWVESSDNDEHYDPGKRITYRSKVKDQNYYSVAVNAGYYVTPNAKVYVEGAWNRVTNKKGNTSLYDHNNNTSDYSKNGAGIENYNFITTAGLKYTF ... less than 3.0%

IN: Param item = OmpT protease variant OmpT D97G (protein) STETLSFTPDNINADISLGTLSGKTKERVYLAEEGGRKVSQLDWKFNNAAIIKGAINWDLMPQISIGAAGWTTLGSRGGNMVDQDWMDSSNPGTWTGESRHPDTQLNYANEFDLNIKGWLLNEPNYRLGLMAGYQESRYSFTARGGSYIYSSEEGFRDDIGSFPNGERAIGYKQRFKMPYIGLTGSYRYEDFELGGTFKYSGWVESSDNDEHYDPGKRITYRSKVKDQNYYSVAVNAGYYVTPNAKVYVEGAWNRVTNKKGNTSLYDHNNNTSDYSKNGAGIENYNFITTAGLKYTF ; retrieve measured relative cleavage efficiency.
OUT: less than 3.0%
